Organism: Gallus gallus
METHOD NOTES: Binding affinity to hen egg white lysozyme assessed as Stem-Volmer dynamic quenching constant at 298 K by Stern-Volmer plot analysis
MEASUREMENT LABEL: KSV (×10⁵ L/mol)
Field: numeric (×10⁵ L/mol). Do not append units.

# COMPOUND, ASSAY VALUE
measured = [
    ("O=C(O)[C@H]1O[C@@H](Oc2cc3oc(-c4ccccc4)cc(=O)c3c(O)c2O)[C@H](O)[C@@H](O)[C@@H]1O [BAICALIN]", 1.25),
    ("CC(C)(CO)[C@@H](O)C(=O)NCCC(=O)O", 1.04),
    ("O=c1cc(-c2ccccc2)oc2cc(O)c(O)c(O)c12 [BAICALEIN]", 2.02),
]

Proceed to the following item.
Assign KSV to the following record: O=C(O)[C@H]1O[C@@H](Oc2cc3oc(-c4ccc(O)cc4)cc(=O)c3c(O)c2O)[C@H](O)[C@@H](O)[C@@H]1O [SCUTELLARIN] 1.63
